tested.on: KRas-mediated phosphorylation of ERK in H358 cells (Homo sapiens, UniProt P01116, G12C)
Construct: pERK HTRF read-out
Sequence (P01116 1-188 isoform P01116-2 G12C): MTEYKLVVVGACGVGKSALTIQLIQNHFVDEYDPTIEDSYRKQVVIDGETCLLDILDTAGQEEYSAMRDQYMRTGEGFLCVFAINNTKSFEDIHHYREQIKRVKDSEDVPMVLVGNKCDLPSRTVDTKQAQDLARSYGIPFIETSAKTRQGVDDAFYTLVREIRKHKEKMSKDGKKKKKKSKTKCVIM
measurement.description: Inhibition of KRas-mediated phosphorylation of ERK (HTRF), H358 cells
Assay type: cell-based
protocol.conditions: HTRF pERK, 3 h incubation
measured.parameter: IC50 (nM)
The figure you give is taken to be in nM; do not add the unit.

In: Note IC50 for the compound shown: CN(C)c1ccn(C(=O)C2CCCN(c3nc(OC[C@@]45CCCN4C[C@H](F)C5)nc4c(F)c(-c5ccc(F)c6sc(N)c(C#N)c56)c(Cl)cc34)CC2)n1 (stereo partly drawn) [Example 188]
Out: 9

In: Read the entry CN(C)C(=O)N(C)C(=O)CCCN(C)c1nc(OC[C@@]23CCCN2C[C@H](F)C3)nc2c(F)c(-c3ccc(F)c4sc(N)c(C#N)c34)c(Cl)cc12 [Example 239] and write its reported IC50.
Out: 114

In: Output IC50 of COCC(C)OC(=O)C1CCN(c2nc(OC[C@@]34CCCN3C[C@H](F)C4)nc3c(F)c(-c4ccc(F)c5sc(N)c(C#N)c45)c(Cl)cc23)CC1 (stereo partly drawn) [Example 240]
Out: 658
